molecular target: DOR (Rattus norvegicus, UniProt P33533); construct: from tissue; assay: Opioid receptor binding, DOR, rat brain membranes; conditions: Binding Ki (nM) DOR, in vitro binding assay, rat brain membranes
Sequence (P33533 whole entry): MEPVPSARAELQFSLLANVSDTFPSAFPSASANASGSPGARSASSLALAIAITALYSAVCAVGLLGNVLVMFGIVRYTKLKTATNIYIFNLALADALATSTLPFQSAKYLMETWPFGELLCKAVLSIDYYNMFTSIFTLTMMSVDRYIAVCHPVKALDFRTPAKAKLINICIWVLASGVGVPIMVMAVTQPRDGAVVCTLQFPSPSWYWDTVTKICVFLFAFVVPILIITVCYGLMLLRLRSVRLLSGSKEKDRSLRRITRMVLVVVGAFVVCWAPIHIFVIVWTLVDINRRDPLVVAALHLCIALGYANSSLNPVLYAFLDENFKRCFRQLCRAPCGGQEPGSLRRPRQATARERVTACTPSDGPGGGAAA
Property: Ki; scope: individual compounds
QUANTITY NAME: Ki (nM)

compound="CC[C@H](C)[C@H](N[C@@H]1CC[C@@]2(OC)[C@H]3Cc4ccc(O)c5c4[C@@]2(CCN3C)[C@H]1O5)C(=O)O [Compound 43]" quantity_name=Ki quantitative_readout=1.3
compound="CO[C@@]12CC[C@H](N[C@@H](CCCCN)C(=O)O)[C@@H]3Oc4c(O)ccc5c4[C@@]31CCN(C)[C@@H]2C5 [Compound 38]" quantity_name=Ki quantitative_readout=1.27
compound="CO[C@@]12CC[C@H](NCCC(=O)OC(C)(C)C)[C@@H]3Oc4c(O)ccc5c4[C@@]31CCN(C)[C@@H]2C5 [21-t-Bu ester]" quantity_name=Ki quantitative_readout=0.83
compound="CO[C@@]12CC[C@H](N[C@@H](CC(N)=O)C(=O)O)[C@@H]3Oc4c(O)ccc5c4[C@@]31CCN(C)[C@@H]2C5 [Compound 26]" quantity_name=Ki quantitative_readout=3.37
compound="CO[C@@]12CC[C@H](N[C@@H](CC(C)C)C(=O)OC(C)(C)C)[C@@H]3Oc4c(O)ccc5c4[C@@]31CCN(C)[C@@H]2C5 [40-t-Bu ester]" quantity_name=Ki quantitative_readout=0.13
compound="CO[C@@]12CC[C@H](NCC(=O)OC(C)(C)C)[C@@H]3Oc4c(O)ccc5c4[C@@]31CCN(C)[C@@H]2C5 [HS730-t-Bu ester]" quantity_name=Ki quantitative_readout=0.54
compound="CO[C@@]12CC[C@H](N[C@@H](CO)C(=O)O)[C@@H]3Oc4c(O)ccc5c4[C@@]31CCN(C)[C@@H]2C5 [Compound 36]" quantity_name=Ki quantitative_readout=5.32
compound="CO[C@@]12CC[C@@H](NCCC(=O)OC(C)(C)C)[C@@H]3Oc4c(O)ccc5c4[C@@]31CCN(C)[C@@H]2C5 [22-t-Bu ester]" quantity_name=Ki quantitative_readout=0.23
compound="COC12CCC(NC(C(=O)O)C(C)C)C3Oc4c(O)ccc5c4C31CCN(C)C2C5 (single isomer, unassigned) [Compound 28]" quantity_name=Ki quantitative_readout=3.91
compound="CCC(C)C(NC1CCC2(OC)C3Cc4ccc(O)c5c4C2(CCN3C)C1O5)C(=O)OC(C)(C)C (single isomer, unassigned) [42-t-Bu ester]" quantity_name=Ki quantitative_readout=1
compound="CO[C@@]12CC[C@@H](N[C@H](C(=O)OC(C)(C)C)[C@@H](C)O)[C@@H]3Oc4c(O)ccc5c4[C@@]31CCN(C)[C@@H]2C5 [35-t-Bu ester]" quantity_name=Ki quantitative_readout=0.65
compound="CCOC(=O)CN[C@@H]1CC[C@@]2(OC)[C@H]3Cc4ccc(O)c5c4[C@@]2(CCN3C)[C@H]1O5 [HS731-Et ester]" quantity_name=Ki quantitative_readout=0.81
compound="CO[C@@]12CC[C@@H](N[C@H](C(=O)OC(C)(C)C)C(C)C)[C@@H]3Oc4c(O)ccc5c4[C@@]31CCN(C)[C@@H]2C5 [29-t-Bu ester]" quantity_name=Ki quantitative_readout=0.86
compound="CO[C@@]12CC[C@@H](N[C@@H](CC(C)C)C(=O)O)[C@@H]3Oc4c(O)ccc5c4[C@@]31CCN(C)[C@@H]2C5 [Compound 41]" quantity_name=Ki quantitative_readout=1.01
compound="CO[C@@]12CC[C@@H](N[C@@H](CCSC)C(=O)O)[C@@H]3Oc4c(O)ccc5c4[C@@]31CCN(C)[C@@H]2C5 [Compound 24]" quantity_name=Ki quantitative_readout=2.4
compound="CCO[C@@]12CC[C@H](NCC(=O)O)[C@@H]3Oc4c(O)ccc5c4[C@@]31CCN(C)[C@@H]2C5 [Compound 5]" quantity_name=Ki quantitative_readout=10.3
compound="CCO[C@@]12CC[C@H](NCC(=O)OC(C)(C)C)[C@@H]3Oc4c(O)ccc5c4[C@@]31CCN(C)[C@@H]2C5 [5-t-Bu ester]" quantity_name=Ki quantitative_readout=0.31
compound="COC12CCC(NC(C(=O)O)C(C)C)C3Oc4c(O)ccc5c4C31CCN(C)C2C5 (single isomer, unassigned) [Compound 29]" quantity_name=Ki quantitative_readout=3.52
compound="CO[C@@]12CC[C@H](N[C@@H](CCC(N)=O)C(=O)OC(C)(C)C)[C@@H]3Oc4c(O)ccc5c4[C@@]31CCN(C)[C@@H]2C5 [17-t-Bu ester]" quantity_name=Ki quantitative_readout=0.18
compound="CO[C@@]12CC[C@@H](N[C@@H](CO)C(=O)O)[C@@H]3Oc4c(O)ccc5c4[C@@]31CCN(C)[C@@H]2C5 [Compound 37]" quantity_name=Ki quantitative_readout=5.29
compound="COC12CCC(NCCC(=O)O)C3Oc4c(O)ccc5c4C31CCN(C)C2C5 (single isomer, unassigned) [Compound 22]" quantity_name=Ki quantitative_readout=13.9
compound="CO[C@@]12CC[C@@H](N[C@@H](CC(N)=O)C(=O)O)[C@@H]3Oc4c(O)ccc5c4[C@@]31CCN(C)[C@@H]2C5 [Compound 27]" quantity_name=Ki quantitative_readout=2.25
compound="CO[C@@]12CC[C@H](N[C@@H](CO)C(=O)OC(C)(C)C)[C@@H]3Oc4c(O)ccc5c4[C@@]31CCN(C)[C@@H]2C5 [36-t-Bu ester]" quantity_name=Ki quantitative_readout=0.17
compound="CCO[C@@]12CC[C@@H](NCC(=O)O)[C@@H]3Oc4c(O)ccc5c4[C@@]31CCN(C)[C@@H]2C5 [Compound 6]" quantity_name=Ki quantitative_readout=5.31
compound="CO[C@@]12CC[C@H](N[C@H](C(=O)O)[C@@H](C)O)[C@@H]3Oc4c(O)ccc5c4[C@@]31CCN(C)[C@@H]2C5 [Compound 34]" quantity_name=Ki quantitative_readout=4.13
